Origin of measurements: patent US20190241662A1

Molecular target: T1, recombinant human CTLA4-Fc (human, UniProt P16410 36-162)
T1 construct: also called human CTLA4 fused with human FC fragment; CTLA4-Fc (Sino Biological, 11159-H03H)
T1 sequence (looked up): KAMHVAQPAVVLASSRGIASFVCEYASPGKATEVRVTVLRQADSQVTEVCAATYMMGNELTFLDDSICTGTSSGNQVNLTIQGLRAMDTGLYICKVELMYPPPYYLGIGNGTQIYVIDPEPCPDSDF
Assay: BLI Octet, CTLA4-Fc on AHC sensor, Fab 10 ug/mL
Task for the reader: assign each of the following binders its reported pKd.
Numbers only, as −log10 of the molar value.

Worked cases, pKd given:
>>> resultvalue("B15756 (Fab, V domains shown, Fab from E. coli; also called Fab hit of TY21591) VH: EVQLVESGGGLVQPGGSLRLSCAASGFSLSTGGVAVSWIRQAPGKGLEWIGEIYHSGSTYYSPSLKSRVTISRDNSKNTLYLQLNSLRAEDTAVYYCARRIATATYFDYWGQGTLVTVSS VL: DIQLTQSPSSLSASVGDRVTITCRASQTVFSRYLAWYQQKPGKAPKLLIYDASNRATGIPSRFSGSGSGTDFTLTISSLQPEDFATYYCQQSYYWPPWTFGQGTKVEIKR")
7.26
>>> resultvalue("B15717 (Fab, V domains shown, Fab from E. coli; also called Fab hit of TY21689) VH: EVQLVESGGGLVQPGGSLRLSCAASGYTFSGYGIHWVRQAPGKGLEWIGEIYHSGSTYYSPSLKSRVTISRDNSKNTLYLQLNSLRAEDTAVYYCARRIDAFDIWGQGTLVTVSS VL: DIQLTQSPSSLSASVGDRVTITCRASQSVDFDGFSFLHWYQQKPGKAPKLLIYDASSLESGVPSRFSGSGSGTDFTLTISSLQPEDFATYYCQQRDSWPYTFGQGTKVEIKR")
6.98

Field: next binder
Q: Please look up its pKd: B15716 (Fab, V domains shown, Fab from E. coli; also called Fab hit of TY21586) VH: EVQLVESGGGLVQPGGSLRLSCAASGYSITSGYYWAWIRQAPGKGLEWVSSISGSGSTTYYADSVKGRFTISRDNSKNTLYLQLNSLRAEDTAVYYCARDGFGYFDYWGQGTLVTVSS VL: DIQLTQSPSSLSASVGDRVTITCSASSSVSYVYWYQQKPGKAPKLLIYDASSLESGVPSRFSGSGSGTDFTLTISSLQPEDFATYYCVQGLQTPWTFGQGTKVEIKR
Ans: 7.92
